FYI, the data here is from paper PMC6393309.

Biological target: T1, Redβ, full-length, untagged (wild type) (bacteriophage λ, UniProt P03698 1-261)
T1 sequence: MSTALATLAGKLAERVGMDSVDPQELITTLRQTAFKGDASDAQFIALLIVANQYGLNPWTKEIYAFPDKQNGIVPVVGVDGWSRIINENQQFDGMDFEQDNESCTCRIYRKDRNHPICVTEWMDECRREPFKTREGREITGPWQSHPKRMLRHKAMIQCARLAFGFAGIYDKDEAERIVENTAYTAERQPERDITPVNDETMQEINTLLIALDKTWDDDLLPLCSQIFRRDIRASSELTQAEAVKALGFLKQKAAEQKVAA
Assay: fluorescence polarisation
No end group written: not given here.
Readout kind: Kd (µM)
Kindly answer with a numeric value in µM, unit omitted.

Asked: Supply measured Kd of {FAM}-WMDFDDDIPF [SSB C-terminal peptide, fluorescein-labeled (FAM-WMDFDDDIPF)] in your reply.
Given back: 10.6
